Provide the reported inhibition of each item.
- target_system: C3a anaphylatoxin chemotactic receptor (Homo sapiens) (UniProt Q16581)
- Sequence (Q16581 whole entry): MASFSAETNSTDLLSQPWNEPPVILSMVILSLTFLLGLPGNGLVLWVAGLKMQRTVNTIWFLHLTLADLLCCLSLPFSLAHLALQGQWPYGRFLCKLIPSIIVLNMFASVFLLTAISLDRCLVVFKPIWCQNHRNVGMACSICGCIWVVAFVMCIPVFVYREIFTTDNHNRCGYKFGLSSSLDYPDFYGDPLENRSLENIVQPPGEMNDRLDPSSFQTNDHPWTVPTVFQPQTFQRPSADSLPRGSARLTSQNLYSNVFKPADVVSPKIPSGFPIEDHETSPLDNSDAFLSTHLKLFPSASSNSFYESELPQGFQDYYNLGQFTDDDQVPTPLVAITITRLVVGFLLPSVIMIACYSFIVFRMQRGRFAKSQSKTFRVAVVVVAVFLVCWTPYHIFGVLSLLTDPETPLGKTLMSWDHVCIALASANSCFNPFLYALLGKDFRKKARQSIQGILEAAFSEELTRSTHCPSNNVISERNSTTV
- experiment_summary: Agonist activity at C3aR in human MDM cells assessed as inhibition of C3a-induced Ca2+ response at 10 uM measured for 60 secs by fluorescence assay relative to 100 nM C3a
- Assay type: functional, cell-based
Numbers only, in %.

Here's what some known entries look like.
{"item_smiles": "Cc1oc([C@H](CC(C)C)NC(=O)CC2CCCCC2)nc1C(=O)N[C@@H](CCCNC(=N)N)C(=O)O", "test_readout": "inhibition", "result_value": 69}
{"item_smiles": "COc1ccc(OC)c(CC(=O)N[C@@H](CC(C)C)c2nc(C(=O)N[C@@H](CCCNC(=N)N)C(=O)O)c(C)o2)c1", "test_readout": "inhibition", "result_value": 69}

State recorded inhibition for all listed molecules.
1. Cc1oc([C@H](CC(C)C)NC(=O)c2cccnc2)nc1C(=O)N[C@@H](CCCNC(=N)N)C(=O)O
2. Cc1oc([C@H](CC(C)C)NC(=O)CC(C)(C)C)nc1C(=O)N[C@@H](CCCNC(=N)N)C(=O)O

Reply |
68
70
